# Species: Rattus norvegicus
# assay explanation: Relative inhibitory potency as ratio of muscle and liver pyruvate kinases
Categories are assigned from the measured Relative inhibitory potency using these intervals: bin A (below 0.9), bin B (0.9 to below 3), bin C (3 or more)

Illustrative cases are given below, each with its answer.
>  <compound>
Nc1ncnc2c1nc(Br)n2[C@@H]1O[C@H](COP(=O)(O)OP(=O)(O)O)[C@@H](O)[C@H]1O

>  <qualitative label>
bin B

$$$$
>  <compound>
CCNc1nc2c(N)ncnc2n1C1O[C@H](COP(=O)(O)OP(=O)(O)O)[C@@H](O)[C@H]1O (stereo not given in full)

>  <qualitative label>
bin C

$$$$
>  <compound>
CO[C@H]1[C@@H](O)[C@H](n2cnc3c(N)ncnc32)O[C@@H]1COP(=O)(O)OP(=O)(O)O

>  <qualitative label>
bin C

$$$$
>  <compound>
CNc1nc(N)c2ncn(C3O[C@H](COP(=O)(O)OP(=O)(O)O)[C@@H](O)[C@H]3O)c2n1 (stereo not given in full)

>  <qualitative label>
bin B

$$$$
>  <compound>
Nc1nc(N)c2ncn(C3O[C@H](COP(=O)(O)OP(=O)(O)O)[C@@H](O)[C@H]3O)c2n1 (stereo not given in full)

>  <qualitative label>
bin A

$$$$
>  <compound>
C[C@@H](OP(=O)(O)OP(=O)(O)O)[C@H]1OC(n2cnc3c(N)ncnc32)[C@H](O)[C@@H]1O (stereo not given in full)

>  <qualitative label>
bin B

$$$$

Below: the item to evaluate.
QUERY: Quick check: band for CNc1nc2c(N)ncnc2n1C1O[C@H](COP(=O)(O)OP(=O)(O)O)[C@@H](O)[C@H]1O (stereo not given in full)
RESULT: bin A

----------
# subject of test: Pyruvate kinase PKM (Rattus norvegicus)
# assay explanation: Ratio of Km(ADP)/Ki or Km for rat muscle pyruvate kinase
outcome measure: Inhibitory potency
Number, no unit, nothing else.

Consider the worked cases shown below.
>  <molecule>
CC(=O)N(C)CCCCN(C)c1ncnc2c1ncn2[C@@H]1O[C@H](COP(=O)(O)OP(=O)(O)O)[C@@H](O)[C@H]1O

>  <outcome measure>
Inhibitory potency

>  <measured>
0.14

$$$$
>  <molecule>
CCSc1nc2c(N)ncnc2n1C1O[C@H](COP(=O)(O)OP(=O)(O)O)[C@@H](O)[C@H]1O (stereo partly specified)

>  <outcome measure>
Inhibitory potency

>  <measured>
0.14

$$$$
>  <molecule>
C[C@H](OP(=O)(O)OP(=O)(O)O)[C@H]1OC(n2cnc3c(N)ncnc32)[C@H](O)[C@@H]1O (stereo partly specified)

>  <outcome measure>
Inhibitory potency

>  <measured>
0.19

$$$$
>  <molecule>
CNc1nc2c(N)ncnc2n1C1O[C@H](COP(=O)(O)OP(=O)(O)O)[C@@H](O)[C@H]1O (stereo partly specified)

>  <outcome measure>
Inhibitory potency

>  <measured>
0.93

$$$$
>  <molecule>
CCNc1nc2c(N)ncnc2n1C1O[C@H](COP(=O)(O)OP(=O)(O)O)[C@@H](O)[C@H]1O (stereo partly specified)

>  <outcome measure>
Inhibitory potency

>  <measured>
1

$$$$

Please examine the following record next.
QUERY: Which Inhibitory potency value is on record for CC1O[C@@H]2[C@H](O1)[C@@H](COP(=O)(O)OP(=O)(O)O)O[C@H]2n1cnc2c(N)ncnc21 (stereo partly specified) ?
RESULT: 0.325
